All figures here come from ChEMBL document CHEMBL5154752.

# MEASUREMENT_TARGET: Melanocortin receptor 3 (Homo sapiens, UniProt P41968)
# Sequence (P41968 whole entry): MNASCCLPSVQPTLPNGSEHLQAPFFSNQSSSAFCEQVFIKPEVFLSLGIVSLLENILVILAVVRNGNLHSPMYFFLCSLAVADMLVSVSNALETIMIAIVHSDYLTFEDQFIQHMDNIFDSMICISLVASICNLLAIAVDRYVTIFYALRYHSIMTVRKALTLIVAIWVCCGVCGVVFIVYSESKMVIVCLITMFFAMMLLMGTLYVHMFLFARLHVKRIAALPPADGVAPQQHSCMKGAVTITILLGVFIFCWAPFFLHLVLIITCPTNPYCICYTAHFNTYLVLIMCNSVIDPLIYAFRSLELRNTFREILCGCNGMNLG
# EXPERIMENTAL_PROTOCOL: Agonist activity at human MC3R expressed in HEK293 cells assessed as maximal intracellular cAMP accumulation at 10 uM by fluorescence based analysis relative to control
# Assay type: functional, cell-based
# REPORTED_CONDITIONS: filed as agonist
PROPERTY_LABEL: Activity (%)
Could you give me the number in %? Just the number is fine.

Incoming: Dear colleague, I am looking for the recorded Activity of the following compound: CCCC[C@H](NC(C)=O)C(=O)N[C@@H]1C(=O)N[C@@H](Cc2c[nH]cn2)C(=O)N[C@H](Cc2ccccc2)C(=O)N[C@@H](CCCNC(=N)N)C(=O)N[C@@H](Cc2c[nH]c3ccccc23)C(=O)N[C@H](C(N)=O)CSCc2cccc(c2)CSC1(C)C
Outgoing: 100

Incoming: # lookup: Activity of CCCC[C@H](NC(C)=O)C(=O)N[C@H]1CSCc2ccccc2CSC[C@@H](C(N)=O)NC(=O)[C@H](Cc2c[nH]c3ccccc23)NC(=O)[C@H](CCCNC(=N)N)NC(=O)[C@@H](Cc2ccccc2)NC(=O)[C@H](Cc2c[nH]cn2)NC1=O
Outgoing: 100

Incoming: Please look up its Activity: CCCC[C@H](NC(C)=O)C(=O)N[C@H]1CSCc2ccccc2CSC(C)(C)[C@@H](C(N)=O)NC(=O)[C@H](Cc2c[nH]c3ccccc23)NC(=O)[C@H](CCCNC(=N)N)NC(=O)[C@@H](Cc2ccccc2)NC(=O)[C@H](Cc2c[nH]cn2)NC1=O
Outgoing: 100

Incoming: Entry CCCC[C@H](NC(C)=O)C(=O)N[C@H]1CSCc2ccc(cc2)CSC(C)(C)[C@@H](C(N)=O)NC(=O)[C@H](Cc2c[nH]c3ccccc23)NC(=O)[C@H](CCCNC(=N)N)NC(=O)[C@@H](Cc2ccccc2)NC(=O)[C@H](Cc2c[nH]cn2)NC1=O : reported Activity = ?
Outgoing: 100

###

# MEASUREMENT_TARGET: Melanocortin receptor 5 (Homo sapiens)
# Sequence (P33032 whole entry): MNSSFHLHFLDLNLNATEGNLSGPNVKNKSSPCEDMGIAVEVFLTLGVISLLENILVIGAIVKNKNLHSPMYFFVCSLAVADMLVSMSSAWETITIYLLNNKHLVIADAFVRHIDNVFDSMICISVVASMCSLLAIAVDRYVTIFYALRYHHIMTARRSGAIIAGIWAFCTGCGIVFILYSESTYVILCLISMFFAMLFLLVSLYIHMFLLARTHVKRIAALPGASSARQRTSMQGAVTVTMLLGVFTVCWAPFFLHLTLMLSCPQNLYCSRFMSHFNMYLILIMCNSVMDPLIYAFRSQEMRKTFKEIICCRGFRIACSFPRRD
# EXPERIMENTAL_PROTOCOL: Displacement of [125I]NDP-alpha-MSH from human MC5R expressed in HEK293 cells by competitive binding assay
PROPERTY_LABEL: IC50 (nM)
Could you give me the number in nM? Just the number is fine.

Incoming: Recorded IC50 for CCCC[C@H](NC(C)=O)C(=O)N[C@H]1CSCc2ccccc2CSC(C)(C)[C@@H](C(N)=O)NC(=O)[C@H](Cc2c[nH]c3ccccc23)NC(=O)[C@H](CCCNC(=N)N)NC(=O)[C@@H](Cc2ccccc2)NC(=O)[C@H](Cc2c[nH]cn2)NC1=O with Melanocortin receptor 5 (Homo sapiens), please?
Outgoing: 46

Incoming: Item: CCCC[C@H](NC(C)=O)C(=O)N[C@@H]1C(=O)N[C@@H](Cc2c[nH]cn2)C(=O)N[C@H](Cc2ccccc2)C(=O)N[C@@H](CCCNC(=N)N)C(=O)N[C@@H](Cc2c[nH]c3ccccc23)C(=O)N[C@H](C(N)=O)C(C)(C)SCc2ccccc2CSC1(C)C Test system: Melanocortin receptor 5 (Homo sapiens) Read-out: IC50 Value: ?
Outgoing: 507

Incoming: Test system Melanocortin receptor 5 (Homo sapiens); read-out IC50; what value for CCCC[C@H](NC(C)=O)C(=O)N[C@H]1CSCc2cccc(c2)CSC[C@@H](C(N)=O)NC(=O)[C@H](Cc2c[nH]c3ccccc23)NC(=O)[C@H](CCCNC(=N)N)NC(=O)[C@@H](Cc2ccccc2)NC(=O)[C@H](Cc2c[nH]cn2)NC1=O ?
Outgoing: 4.4

Incoming: Form entry - test system: Melanocortin receptor 5 (Homo sapiens); read-out: IC50; compound: CCCC[C@H](NC(C)=O)C(=O)N[C@H]1CSCc2ccc(cc2)CSC(C)(C)[C@@H](C(N)=O)NC(=O)[C@H](Cc2c[nH]c3ccccc23)NC(=O)[C@H](CCCNC(=N)N)NC(=O)[C@@H](Cc2ccccc2)NC(=O)[C@H](Cc2c[nH]cn2)NC1=O
Outgoing: 69

###

# MEASUREMENT_TARGET: Melanocortin receptor 3 (Homo sapiens, UniProt P41968)
# EXPERIMENTAL_PROTOCOL: Displacement of [125I]NDP-alpha-MSH from human MC3R expressed in HEK293 cells by competitive binding assay
PROPERTY_LABEL: pIC50
# pIC50 is unitless: minus log10 of the molar concentration; print number only

Incoming: // pIC50 lookup, key: CCCC[C@H](NC(C)=O)C(=O)N[C@H]1CSCc2ccccc2CSC[C@@H](C(N)=O)NC(=O)[C@H](Cc2c[nH]c3ccccc23)NC(=O)[C@H](CCCNC(=N)N)NC(=O)[C@@H](Cc2ccccc2)NC(=O)[C@H](Cc2c[nH]cn2)NC1=O
Outgoing: 6.52

###

# MEASUREMENT_TARGET: Melanocyte-stimulating hormone receptor (Homo sapiens)
# Sequence (Q01726 whole entry): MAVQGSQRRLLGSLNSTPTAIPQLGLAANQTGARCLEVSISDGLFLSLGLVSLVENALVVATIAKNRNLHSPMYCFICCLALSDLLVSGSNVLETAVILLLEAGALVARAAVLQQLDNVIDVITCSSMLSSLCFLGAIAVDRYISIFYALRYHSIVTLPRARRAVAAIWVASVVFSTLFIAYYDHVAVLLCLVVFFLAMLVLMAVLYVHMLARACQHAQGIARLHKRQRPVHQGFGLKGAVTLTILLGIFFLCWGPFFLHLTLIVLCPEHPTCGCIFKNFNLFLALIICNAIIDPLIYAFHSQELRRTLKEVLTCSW
# EXPERIMENTAL_PROTOCOL: Agonist activity at human MC1R expressed in HEK293 cells assessed as maximal intracellular cAMP accumulation by fluorescence based analysis
PROPERTY_LABEL: EC50 (nM)
The reply should be a number in nM, with the unit left off.

Incoming: Consider the compound CCCC[C@H](NC(C)=O)C(=O)N[C@H]1CSCc2ccc(cc2)CSC(C)(C)[C@@H](C(N)=O)NC(=O)[C@H](Cc2c[nH]c3ccccc23)NC(=O)[C@H](CCCNC(=N)N)NC(=O)[C@@H](Cc2ccccc2)NC(=O)[C@H](Cc2c[nH]cn2)NC1=O and give its measured EC50.
Outgoing: 3

Incoming: So what's the measured EC50 for this one? CCCC[C@H](NC(C)=O)C(=O)N[C@H]1CSCc2cccc(c2)CSC[C@@H](C(N)=O)NC(=O)[C@H](Cc2c[nH]c3ccccc23)NC(=O)[C@H](CCCNC(=N)N)NC(=O)[C@@H](Cc2ccccc2)NC(=O)[C@H](Cc2c[nH]cn2)NC1=O
Outgoing: 3

Incoming: // lookup EC50 for CCCC[C@H](NC(C)=O)C(=O)N[C@H]1CSCc2ccc(cc2)CSC[C@@H](C(N)=O)NC(=O)[C@H](Cc2c[nH]c3ccccc23)NC(=O)[C@H](CCCNC(=N)N)NC(=O)[C@@H](Cc2ccccc2)NC(=O)[C@H](Cc2c[nH]cn2)NC1=O
Outgoing: 4

###

# MEASUREMENT_TARGET: Melanocortin receptor 3 (Homo sapiens)
# EXPERIMENTAL_PROTOCOL: Agonist activity at human MC3R expressed in HEK293 cells assessed as maximal intracellular cAMP accumulation by fluorescence based analysis
Provide the recorded EC50 for the entries that follow.
Numbers only here, please. The scale is nM.

Incoming: Any idea what EC50 was measured for CCCC[C@H](NC(C)=O)C(=O)N[C@H]1CSCc2ccc(cc2)CSC[C@@H](C(N)=O)NC(=O)[C@H](Cc2c[nH]c3ccccc23)NC(=O)[C@H](CCCNC(=N)N)NC(=O)[C@@H](Cc2ccccc2)NC(=O)[C@H](Cc2c[nH]cn2)NC1=O ?
Outgoing: 645

Incoming: Entry CCCC[C@H](NC(C)=O)C(=O)N[C@H]1CSCc2cccc(c2)CSC[C@@H](C(N)=O)NC(=O)[C@H](Cc2c[nH]c3ccccc23)NC(=O)[C@H](CCCNC(=N)N)NC(=O)[C@@H](Cc2ccccc2)NC(=O)[C@H](Cc2c[nH]cn2)NC1=O has what EC50?
Outgoing: 902

###

# MEASUREMENT_TARGET: Melanocortin receptor 3 (Homo sapiens)
# EXPERIMENTAL_PROTOCOL: Displacement of [125I]NDP-alpha-MSH from human MC3R expressed in HEK293 cells by competitive binding assay
For each entry below, report its pIC50 value.
pIC50 (log units): -log10 of the concentration in mol/L.

Incoming: Suppose we examine the molecule CCCC[C@H](NC(C)=O)C(=O)N[C@H]1CSCc2ccc(cc2)CSC[C@@H](C(N)=O)NC(=O)[C@H](Cc2c[nH]c3ccccc23)NC(=O)[C@H](CCCNC(=N)N)NC(=O)[C@@H](Cc2ccccc2)NC(=O)[C@H](Cc2c[nH]cn2)NC1=O ; what pIC50 value has been reported?
Outgoing: 7.62

Incoming: Data request, read-out pIC50, for CCCC[C@H](NC(C)=O)C(=O)N[C@@H]1C(=O)N[C@@H](Cc2c[nH]cn2)C(=O)N[C@H](Cc2ccccc2)C(=O)N[C@@H](CCCNC(=N)N)C(=O)N[C@@H](Cc2c[nH]c3ccccc23)C(=O)N[C@H](C(N)=O)CSCc2cccc(c2)CSC1(C)C
Outgoing: 6.61

Incoming: Which pIC50 reading was recorded for the molecule CCCC[C@H](NC(C)=O)C(=O)N[C@H]1CSCc2ccc(cc2)CSC(C)(C)[C@@H](C(N)=O)NC(=O)[C@H](Cc2c[nH]c3ccccc23)NC(=O)[C@H](CCCNC(=N)N)NC(=O)[C@@H](Cc2ccccc2)NC(=O)[C@H](Cc2c[nH]cn2)NC1=O ?
Outgoing: 7.19

Incoming: Look up pIC50 for this molecule: CCCC[C@H](NC(C)=O)C(=O)N[C@H]1CSCc2cccc(c2)CSC[C@@H](C(N)=O)NC(=O)[C@H](Cc2c[nH]c3ccccc23)NC(=O)[C@H](CCCNC(=N)N)NC(=O)[C@@H](Cc2ccccc2)NC(=O)[C@H](Cc2c[nH]cn2)NC1=O
Outgoing: 7.49

Incoming: Requested read-out: pIC50. Entry: CCCC[C@H](NC(C)=O)C(=O)N[C@@H]1C(=O)N[C@@H](Cc2c[nH]cn2)C(=O)N[C@H](Cc2ccccc2)C(=O)N[C@@H](CCCNC(=N)N)C(=O)N[C@@H](Cc2c[nH]c3ccccc23)C(=O)N[C@H](C(N)=O)CSCc2ccccc2CSC1(C)C
Outgoing: 6.65
